B1: TRIM43 (parent)
chain: NNSWIRKNSTMVNSEDIFLLLCLK

Variants of: B1
TEST NAME: protein stability index of a GFP-peptide fusion (GPS, HEK-293T) (PSI 1-6); higher = more stable;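 further: lentivirally expressed fusions sorted by FACS into six bins by GFP to DsRed ratio, PSI derived from sequencing read proportions per bin multiplied by bin number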
PROTOCOL CONDITIONS: c terminus: a fixed tail appended
Answer Not satisfied if protein stability index is under 3, and Satisfied if it is 3 or more.

These recorded examples may help you get a feel for the data.
>  <MUTATION SPEC>
L23E

>  <DISCRETE LABEL>
Not satisfied

$$$$
>  <MUTATION SPEC>
M11R

>  <DISCRETE LABEL>
Not satisfied

$$$$
>  <MUTATION SPEC>
D16N

>  <DISCRETE LABEL>
Satisfied

$$$$
>  <MUTATION SPEC>
I17H

>  <DISCRETE LABEL>
Not satisfied

$$$$
>  <MUTATION SPEC>
N13E

>  <DISCRETE LABEL>
Not satisfied

$$$$
>  <MUTATION SPEC>
N8A

>  <DISCRETE LABEL>
Not satisfied

$$$$

Problem: # check: protein stability index of S9V is greater than or equal to 3
Result: Not satisfied

Problem: # check: protein stability index of C22G is greater than or equal to 3
Result: Not satisfied

Problem: # check: protein stability index of N1G is greater than or equal to 3
Result: Not satisfied

Problem: # check: protein stability index of S9Y is greater than or equal to 3
Result: Satisfied

Problem: # check: protein stability index of S9M is greater than or equal to 3
Result: Not satisfied

Problem: # check: protein stability index of E15A is greater than or equal to 3
Result: Satisfied

Problem: # check: protein stability index of N1T is greater than or equal to 3
Result: Not satisfied

Problem: # check: protein stability index of K24M is greater than or equal to 3
Result: Satisfied
